# System: TO-3-N3 (biotin conjugate)
# experiment-description: pull-down binding Z-score (relative to library population); higher = stronger binding
# assay-setup: RNA library: Library-2
Assign pull-down binding Z-score to each entry below.
Answer field: number only, no words.

Could you tell me which pull-down binding Z-score is on file for GUGUAUGCUGCUGACCCUGCUAUGCACGCUGCUUCUGGUAAUCUAUUACUAGAUAAACGCACUACGUGCUUUUCAGUAGCUGCAC ? 0.39

Could you tell me which pull-down binding Z-score is on file for GGCGCUUCUCCUUCUGAACAGAGCGCU [hsa-mir-1251] ? -0.462

Could you tell me which pull-down binding Z-score is on file for AACUGGUAAUACACUUCAGUGUAUAAUGCUAGUU ? -0.966

Could you tell me which pull-down binding Z-score is on file for UGUGACUGGACA [SHAPE_invivo_SARS-CoV-2_Motif_313] ? 0.86

Could you tell me which pull-down binding Z-score is on file for CCAAAUCAGAAAAGGAUUUGG [hsa-mir-4520-1] ? -0.497

Could you tell me which pull-down binding Z-score is on file for GAGGCCUCUUGCCAUGGCCUCC [hsa-mir-7113] ? -0.486

Could you tell me which pull-down binding Z-score is on file for CUUUCUGUUGUCUAAAAGAAAAGAACG [hsa-mir-521-1] ? -0.211

Could you tell me which pull-down binding Z-score is on file for UUCAGAUUUUGGAACAUUUCGGAUUUUGGA [hsa-mir-1290] ? -0.172

Could you tell me which pull-down binding Z-score is on file for UCUGCUUUGAUGAAAUAAAGCAGA [hsa-mir-4773-2] ? -0.145

Could you tell me which pull-down binding Z-score is on file for CUUUUAUGUGCCUUGAUAUAAAAG [hsa-mir-3910-2] ? -0.556

* * *

# Test system: TO-N3-2 (biotin conjugate)
# experiment-description: pull-down binding Z-score (relative to library population); higher = stronger binding
# assay-setup: RNA library: Library-2
Assign pull-down binding Z-score to each entry below.
Answer field: number only, no words.

Could you tell me which pull-down binding Z-score is on file for CAUCCCGGACGGCCUGUGAGGGAUG [hsa-mir-4787] ? 0.952

Could you tell me which pull-down binding Z-score is on file for GAGCUGCCCUGUCGGUGAAGCUC [IAV_invivo_NA_6_Motif_6+IAV_invivo_NA_6_Motif_6] ? 0.384

Could you tell me which pull-down binding Z-score is on file for UUGAUGUCAGAAUGAGGUGUACCAA [hsa-mir-4714] ? -0.099

Could you tell me which pull-down binding Z-score is on file for AGCUGUUGGCCAUGGCGACAACACCU [hsa-mir-6742] ? 0.561

Could you tell me which pull-down binding Z-score is on file for GGGCUUUCUGGUUUUAUUUUAAGCCC [hsa-mir-186] ? -0.494

Could you tell me which pull-down binding Z-score is on file for CUGCGGCCCUGAUGUCUCUACUCCAG [hsa-mir-4691] ? 0.919

Could you tell me which pull-down binding Z-score is on file for GGUGUCGAACUCAUGGCUGCCACC [hsa-mir-6782] ? 0.629

Could you tell me which pull-down binding Z-score is on file for AUGUUCACUUGAUUAAUGGCGAAUAU [hsa-mir-1185-2_1185-1] ? -0.673

Could you tell me which pull-down binding Z-score is on file for ACAGAAUGCUGU ? -1.19

Could you tell me which pull-down binding Z-score is on file for ACACAUUCUGACAAAUUCACAGAUGGUGU [SHAPE_invitro_SARS-CoV-2_Motif_350] ? 0.264

Could you tell me which pull-down binding Z-score is on file for GCUAGAAAAUCAGC [SHAPE_invivo_SARS-CoV-2_Motif_531] ? -0.164

Could you tell me which pull-down binding Z-score is on file for GUACAUGGGCACACUUUCUUAUGAACAAUUUAAGAAAGGUGUUCAGAUAC [DMSMaPseq_invitro_SARS-CoV-2_Motif_106] ? -0.639

Could you tell me which pull-down binding Z-score is on file for UUUCUUAAAUUUUAUAUAUUGGAA [hsa-mir-1284] ? -1.11

Could you tell me which pull-down binding Z-score is on file for GGUUUAUACCUUCCCAGGUAACAAACC ? -1.05

Could you tell me which pull-down binding Z-score is on file for AGCUGUGAAAGUCCUAGCU [hsa-mir-1256] ? 3.94

Could you tell me which pull-down binding Z-score is on file for GUGAUUGUCUUCCUCACUCAAUCAG [hsa-mir-4704] ? -0.0609

Could you tell me which pull-down binding Z-score is on file for CACAAAUAUGGCUCUUUGUG [hsa-mir-4474] ? -0.657

Could you tell me which pull-down binding Z-score is on file for GGCUGGAUCGAGUGAGCAAGCAGCAGAGGCC [IAV_invivo_M1_M2_7_Motif_14+IAV_invivo_M1_M2_7_Motif_14] ? 2.47

Could you tell me which pull-down binding Z-score is on file for GUUUGCCUGUUAAUGAAUUCAAAC [hsa-mir-3129] ? 0.0357

Could you tell me which pull-down binding Z-score is on file for AUAAACCACCCAUUAGUUUUCCAUUGUGUGCUAAUGGACAAGUUUUUGGUUUAU ? -1.1

Could you tell me which pull-down binding Z-score is on file for GGUUGGGAAAUUGUUAAAUUUAUCUCAACC ? -0.802

Could you tell me which pull-down binding Z-score is on file for GCCCCAGGGCAGGGGC [hsa-mir-4515] ? -0.972

* * *

# System: TO-N3 (biotin conjugate)
# experiment-description: pull-down binding Z-score (relative to library population); higher = stronger binding
# assay-setup: RNA library: Library-2
assay-endpoint: pull-down binding Z-score
Answer field: number only, no words.

Could you tell me which pull-down binding Z-score is on file for CACAAGACUAGGCUUCCCUGUG [hsa-mir-3152] ? 0.13

Could you tell me which pull-down binding Z-score is on file for GCAAGCUUCGAUAAUUUUAAGUUUGU [SHAPE_invitro_SARS-CoV-2_Motif_120] ? 0.816

Could you tell me which pull-down binding Z-score is on file for CAGUACUGGUCUUAGACUG [hsa-mir-554] ? 0.368

Could you tell me which pull-down binding Z-score is on file for CCUGCCCAAAUGGUGGAGCAGAUUCGAGGGGCAGG [hsa-mir-4436b-2_4436b-1] ? -0.282

Could you tell me which pull-down binding Z-score is on file for GUGAUGAACUGAAGAUUAAUGCGGCUUGUAGAAAGGUUCAACACAUGGUUGUUAAAGCUGCAUUAUUAGCAGACAAAUUCCCAGUUCUUCAC ? 0.101

Could you tell me which pull-down binding Z-score is on file for CUUGAUUUAAUGUCAUACAAUUAAG [hsa-mir-124-2] ? -0.928

Could you tell me which pull-down binding Z-score is on file for CCAAGACAUGUGAUCUGCACCUCUGAAGACAUGCUUAACCCUAAUUAUGAAGAUUUACUCAUUCGUAAGUCUAAUCAUAAUUUCUUGG [DMSMaPseq_invitro_SARS-CoV-2_Multi_33_ComplexLevel_1] ? 0.332

Could you tell me which pull-down binding Z-score is on file for UCCAGGCAUCUGUGUCUG [hsa-mir-4669] ? 1.52

Could you tell me which pull-down binding Z-score is on file for GUAUGAGCAGUAUAU [DMSMaPseq_invitro_SARS-CoV-2_Motif_451] ? -0.709

* * *

# Test system: G-clamp-N3 (biotin conjugate)
# experiment-description: pull-down binding Z-score (relative to library population); higher = stronger binding
# assay-setup: RNA library: Library-1 (pre-miRNA loops + repeats)
# label = yes if pull-down binding Z-score >= -0.9 else no

Determine whether measured pull-down binding Z-score meets or exceeds -0.9 for CUGUUGUUUCAGCUCGACAACAACAG [hsa-mir-3937] yes

Determine whether measured pull-down binding Z-score meets or exceeds -0.9 for GCAUUUUAUCUAAGAUACACACAAAGCAAAUGC [hsa-mir-4439] no

Determine whether measured pull-down binding Z-score meets or exceeds -0.9 for UUUUCUUAAAUUGUAUAAAGAGAAAU [hsa-mir-944] yes

Determine whether measured pull-down binding Z-score meets or exceeds -0.9 for GCAUGGGGCUAGGAGGCCCCGCGC [hsa-mir-6825] yes

Determine whether measured pull-down binding Z-score meets or exceeds -0.9 for GGCGCGCGAGGCUCCAGGCUCC [hsa-mir-3197] yes

* * *

# Test system: TO-N3 (biotin conjugate)
# experiment-description: pull-down binding Z-score (relative to library population); higher = stronger binding
# assay-setup: RNA library: Library-2
Assign pull-down binding Z-score to each entry below.

Could you tell me which pull-down binding Z-score is on file for UGUAAAAUGUAAUAACAUUUCUUAUGUUUAAAACACUUUACA [hsa-mir-4801] ? -0.783

Could you tell me which pull-down binding Z-score is on file for ACAGAUCUUUACCAGGAGUUUUCUGU ? -1.28

Could you tell me which pull-down binding Z-score is on file for GUCAUUACUUUCAAUAGC [hsa-mir-548p] ? -0.684

Could you tell me which pull-down binding Z-score is on file for GCGGUUUUUGCCAUUACUUUUCAUUUUUACCAUUAAAAGUAAUGGCAAAAAGCAU [hsa-mir-548q] ? -1.09

Could you tell me which pull-down binding Z-score is on file for AACAGCUUUGCGAAGUGUUGUU [hsa-mir-4425] ? -0.113

Could you tell me which pull-down binding Z-score is on file for UCAAAAAGAAAUUGA [SHAPE_invivo_SARS-CoV-2_Motif_472] ? -0.459

Could you tell me which pull-down binding Z-score is on file for CUAUAGUAGCUGGUGGUAUUGUAGCUAUCGUAG [SHAPE_invitro_SARS-CoV-2_Motif_182] ? 0.874

Could you tell me which pull-down binding Z-score is on file for CAUGCAGCAUGCUUGUCUG [hsa-mir-767] ? -0.247

Could you tell me which pull-down binding Z-score is on file for AAUGUUUUAUUCUCUACAGUGUUCCCACUUACAAGUUUUGGACCACUAGUGAGAAAAAUAUU [DMSMaPseq_invitro_SARS-CoV-2_Motif_260] ? -0.882
